The compounds listed here are annotated with their pest or weed control at 125 g/ha.
# System: wild oat
# method.summary: Test D postemergence
# Assay type: in vivo, Avena fatua
# test.conditions: Avena fatua, post-emergence, 125 g ai/ha, scale 0 to 100 (0 no effect, 100 complete control), read-out: Plant response rating, Oat, Wild
# Source text: […]
Express the result in % but write the number alone.

1. Clc1cnc(Oc2ccccc2-n2cc(Br)cn2)nc1    10
2. FC(F)(F)c1cn(-c2ccccc2Oc2ncc(Cl)cn2)nn1    40
3. Fc1cccc(Oc2ncc(Cl)cn2)c1-n1cc(Br)cn1    25

Now for the compound whose pest or weed control at 125 g/ha we want.
Query string: Need pest or weed control at 125 g/ha, item `N#Cc1cccc(Oc2ncc(Cl)cn2)c1-n1cc(C(F)(F)F)cn1`
Result string: 35
